Numbers sourced from patent US20020160968A1.

system: NAD(P) synthesis from niacinamide in HepG2 cells; assay: Determination of NAD(P) synthesis from [14C]niacinamide in HepG2 cells; assay type: cell-based, human; settings: Homo sapiens, 10 μM, read-out: Cellular NAD synthesis inhibition [%]
Listed here: items and their measured inhibition at 10 µM.
Write it as a number; the unit % goes unstated.

Entry [N-]=[N+]=CC(=O)OC[C@H](N)C(=O)O [Azaserine, reference compound] has what inhibition at 10 µM?
0

Entry O=C(NCCCCC1CCN(C(=O)N2c3ccccc3CCc3ccccc32)CC1)Nc1cccnc1 has what inhibition at 10 µM?
99

Entry S=C(NCCCCCC1CCN(C(c2ccccc2)c2ccccc2)CC1)Nc1cccnc1 has what inhibition at 10 µM?
99

* * *

tested on: NAD(P) synthesis from niacinamide in HepG2 cells; test: Determination of NAD(P) synthesis from [14C]niacinamide in HepG2 cells; type: cell-based, human; conditions: Homo sapiens, 10 μM, read-out: Cellular NAD synthesis inhibition [%]
value type: inhibition at 10 µM (%)
Write it as a number; the unit % goes unstated.

Some molecules with known inhibition at 10 µM results, for comparison:
O=C(CCCCCN1CCN(C(c2ccccc2)c2ccccc2)CC1)NCCc1cccnc1 [Compound K22265]: 98
O=C(NCCCCC1CCN(S(=O)(=O)c2ccc3ccccc3c2)CC1)Nc1cccnc1 [Compound K22365]: 92
[N-]=[N+]=CC(=O)CC[C@H](N)C(=O)O [6-Diazo-5-oxo-L-norleucine, reference compound]: 0

Next, consider the following molecule.
Entry NC(Cc1ccc(O)c(N=Nc2ccccc2C(=O)N2CCC(CCCCNC(=O)/C=C/c3cccnc3)CC2)c1)C(=O)O (stereo not shown) [Compound K22408, trihydrate] has what inhibition at 10 µM?
98

* * *

tested on: Hep G2 cells; assay: Nicotinamide Reversibility Assay / cell growth inhibition of Hep G2 cells (SRB, six days); format: cell-based, human; conditions: Homo sapiens, HepG2, 144 h; Hep G2; six days of compound incubation; SRB; read-out: Cell growth inhibition IC50-values [μM] Hep G2
value type: IC50 (µM)
Write it as a number; the unit µM goes unstated.

Some molecules with known IC50 results, for comparison:
O=C(CCCCCN1CCN(C(c2ccccc2)c2ccccc2)CC1)NCCc1cccnc1 [Compound K22265]: 2
[N-]=[N+]=CC(=O)CC[C@H](N)C(=O)O [6-Diazo-5-oxo-L-norleucine, reference compound]: 3
O=C(NCCCCCCNC(=O)NCc1cccnc1)NCCC(c1ccccc1)c1ccccc1 [Compound K22158]: 0.1
O=C(/C=C/c1cccnc1)NCCCCCCCC(c1ccccc1)c1ccccc1 [Compound K22133]: 0.02
O=C(NCCCCC1CCN(C(c2ccccc2)c2ccccc2)CC1)Nc1cccnc1 [Compound K22130]: 0.08

Entry O=C(NCCCCC1CCN(C(c2ccccc2)c2ccccc2)CC1)NCCc1cccnc1 [Compound K22339] has what IC50?
0.1

Entry COc1cccc2c1C(=O)c1c(O)c3c(c(O)c1C2=O)C[C@@](O)(C(=O)CO)C[C@@H]3O[C@H]1C[C@H](N)[C@H](O)[C@H](C)O1 [Doxorubicin, reference compound] has what IC50?
0.02

Entry O=C(CCc1cccnc1)NCCCCC1CCN(CCCCC2CCN(C(c3ccccc3)c3ccccc3)CC2)CC1 [Compound K22316] has what IC50?
0.9

Entry O=C(NCCCCC1CCN(C(=O)N2c3ccccc3CCc3ccccc32)CC1)Nc1cccnc1 [Compound K22387] has what IC50?
0.002

Entry NC(Cc1ccc(O)c(N=Nc2ccccc2C(=O)N2CCC(CCCCNC(=O)/C=C/c3cccnc3)CC2)c1)C(=O)O (stereo not drawn) [Compound K22408, trihydrate] has what IC50?
0.2

Entry O=C(NCCCCCCNC(=O)N1CCN(C(c2ccccc2)c2ccccc2)CC1)NCc1cccnc1 [Compound K22132] has what IC50?
0.02

Entry S=C(NCCCCC=C(c1ccccc1)c1ccccc1)N/N=C/c1cccnc1 [Compound K22299] has what IC50?
0.1
